glycan array binding signal (z-score) values by entry
# testSystem: Fuc(a1-2)[Gal(a1-4)]Gal(b1-4)GlcNAc
# runDescription: glycan array binding signal (z-score within array); higher = stronger binding
# setupConditions: glycan notation: IUPAC condensed, linker removed
About 410 targets per protein were measured; listed, in parts, are those with the strongest signals and a random draw of the rest.

binder	obsValue
Epa13 (Candida glabrata) (protein) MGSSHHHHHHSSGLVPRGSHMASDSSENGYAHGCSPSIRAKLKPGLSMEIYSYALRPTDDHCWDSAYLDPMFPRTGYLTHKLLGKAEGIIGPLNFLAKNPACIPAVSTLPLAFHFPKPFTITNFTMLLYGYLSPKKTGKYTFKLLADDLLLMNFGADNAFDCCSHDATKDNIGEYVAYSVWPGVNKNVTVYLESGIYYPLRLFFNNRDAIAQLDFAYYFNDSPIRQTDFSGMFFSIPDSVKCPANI	9.27

Next binder, glycan array binding signal (z-score) to be filled in.
Quick one: glycan array binding signal (z-score) of F17fG (Escherichia coli), Q9RH91 (protein) MTNFYKVFLAVFILVCCNISHAAVSFIGSTENDVGPSQGSYSSTHAMDNLPFVYNTGHNIGYQNANVWRISGGFCVGLDGKVDLPVVGSLDGQSIYGLTEEVGLLIWMGDTNYSRGTAMSGNSWENVFSGWCVGNYVSTQGLSVHVRPVILKRNSSAQYSVQKTSIGSIRMRPYNGSSAGSVQTTVNFSLNPFTLNDTVTSCRLLTPSAVNVSLAAISAGQLPSSGDEVVAGTTSLKLQCDAGVTVWATLTDATTPSNRSDILTLTGASTATGVGLRIYKNTDSTPLKFGPDSPVKGNENQWQLSTGTETSPSVRLYVKYVNTGEGINPGTVNGISTFTFSYQ ?
-0.127
